biological target: hERG (Homo sapiens); test: in vitro; assay type: cell-based; details: human, pH 7.4; 167 μM; read-out: hERG inhibition at top test concentration
Sequence (Q12809 whole entry): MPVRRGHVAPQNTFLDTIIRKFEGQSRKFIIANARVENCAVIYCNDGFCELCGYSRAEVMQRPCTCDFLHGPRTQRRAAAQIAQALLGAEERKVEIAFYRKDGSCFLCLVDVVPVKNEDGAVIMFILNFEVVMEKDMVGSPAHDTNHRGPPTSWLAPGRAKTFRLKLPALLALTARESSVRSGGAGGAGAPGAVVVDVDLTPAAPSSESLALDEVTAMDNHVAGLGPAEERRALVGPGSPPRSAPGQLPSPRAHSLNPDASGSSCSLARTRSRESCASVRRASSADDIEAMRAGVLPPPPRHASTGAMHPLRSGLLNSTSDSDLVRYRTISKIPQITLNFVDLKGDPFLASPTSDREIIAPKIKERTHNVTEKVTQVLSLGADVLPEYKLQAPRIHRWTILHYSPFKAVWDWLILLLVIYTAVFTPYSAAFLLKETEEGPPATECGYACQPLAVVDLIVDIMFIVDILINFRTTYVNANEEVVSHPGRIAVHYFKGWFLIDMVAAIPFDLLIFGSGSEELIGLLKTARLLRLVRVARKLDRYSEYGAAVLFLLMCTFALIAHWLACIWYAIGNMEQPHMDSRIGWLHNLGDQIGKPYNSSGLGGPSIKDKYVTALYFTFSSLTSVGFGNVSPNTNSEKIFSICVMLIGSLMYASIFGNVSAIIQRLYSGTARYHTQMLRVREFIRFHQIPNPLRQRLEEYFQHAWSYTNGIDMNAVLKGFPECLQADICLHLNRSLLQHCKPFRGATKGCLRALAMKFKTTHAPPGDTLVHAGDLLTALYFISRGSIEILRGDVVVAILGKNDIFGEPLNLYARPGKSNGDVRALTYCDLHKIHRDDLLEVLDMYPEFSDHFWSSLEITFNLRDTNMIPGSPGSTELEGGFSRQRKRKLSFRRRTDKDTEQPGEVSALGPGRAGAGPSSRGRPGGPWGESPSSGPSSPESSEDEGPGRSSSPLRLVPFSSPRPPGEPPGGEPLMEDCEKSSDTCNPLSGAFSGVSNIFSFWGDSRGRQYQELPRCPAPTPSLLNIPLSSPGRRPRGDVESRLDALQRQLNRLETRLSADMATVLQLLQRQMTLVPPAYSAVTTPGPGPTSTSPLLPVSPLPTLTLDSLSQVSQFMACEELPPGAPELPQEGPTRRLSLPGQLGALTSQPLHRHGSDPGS
parameter measured: inhibition at 167 µM

INSERT INTO results (molecule, tgt, data_value) VALUES
  ('FC(F)(F)Oc1ccc(C2CC(CN3CCCC3)N2Cc2ccccc2OC(F)(F)F)cc1 (stereo not shown) [BGAz-002]', 'hERG (Homo sapiens)', '< 50%');

---

experiment: Mouse PK, combined (cassette) dosing of BGAz-001–005; type: in vivo, KM mice; settings: male, KM, mouse, plasma, ip, 1 mg/kg, IP 1 mg/kg, cassette, mean of animals; read-out: Tmax
parameter measured: Tmax

INSERT INTO assay_data (molecule, parameter_measured, data_value) VALUES
  ('FC(F)(F)Oc1ccc(C2CC(CN3CCCC3)N2Cc2ccccc2OC(F)(F)F)cc1 (stereo not drawn)', 'Tmax', '10 min'),
  ('CNCC1CC(c2ccc(OC(F)(F)F)cc2)N1Cc1ccccc1OC(F)(F)F (stereo not drawn)', 'Tmax', '38.8 min'),
  ('Brc1cc(Br)cc(C2CC(CN3CCCC3)N2Cc2ccccc2Br)c1 (stereo not drawn)', 'Tmax', '16.3 min');

Origin of values: paper PMC10895678
